test system: KB-3-1 human cervical carcinoma cells; test: inhibition of colony formation, KB-3-1; assay type: cell-based; conditions: KB 3-1, 240 h, read-out: IC50 (Masoprocol), 50% inhibition of colony formation, 10 days, 37° C., parenthesis: standard deviation
observationType: IC50 (µM)
Answers are plain numbers, in µM.

Which IC50 is reported for this molecule? C[C@H](Cc1ccc(O)c(O)c1)[C@@H](C)Cc1ccc(O)c(O)c1 [Masoprocol] 43.6

---

system: OVCAR3 ovarian cancer cells; experiment: in vitro cytotoxicity anti tumor activity; type: cell-based; details: Homo sapiens, OVCAR-3, 1 h
observationType: IC50 (µM)
Numbers only, in µM.

Which IC50 is reported for this compound? "COc1cccc2c1C(=O)c1c(O)c3c(c(O)c1C2=O)C[C@@](O)(C(=O)CO)C[C@@H]3O[C@H]1C[C@H](N)[C@H](O)[C@H](C)O1" 13.8

---

test system: Lung (LX-1) cancer cells; experiment: in vitro cytotoxicity anti tumor activity; assay type: cell-based; details: 1 h
observationType: IC50 (µM)
Answers are plain numbers, in µM.

Which IC50 is reported for this compound? COc1cccc2c1C(=O)c1c(O)c3c(c(O)c1C2=O)C[C@@](O)(C(=O)CO)C[C@@H]3O[C@H]1C[C@H](N)[C@H](O)[C@H](C)O1 [Doxorubicin] 26

---

tested on: Hs 68 Newborn Foreskin Fibroblasts; experiment: in vitro cytotoxicity, normal cells; format: cell-based; conditions: Homo sapiens, Hs68, 70 h
observationType: IC50 (nM)
Answers are plain numbers, in nM.

Which IC50 is reported for this compound? "COc1cccc2c1C(=O)c1c(O)c3c(c(O)c1C2=O)C[C@@](O)(C(=O)CO)C[C@@H]3O[C@H]1C[C@H](N)[C@H](O)[C@H](C)O1" 120

---

tested on: Hs 68 Newborn Foreskin Fibroblasts; test: in vitro cytotoxicity, normal cells; type: cell-based; conditions: Homo sapiens, Hs68; Continuous Drug Exposure, observation at 70 hours; read-out: IC50
observationType: pIC50
Answers are plain numbers, as −log10 of the molar value.

Which pIC50 is reported for this compound? C[C@H](Cc1ccc(O)c(O)c1)[C@@H](C)Cc1ccc(O)c(O)c1 [Masoprocol] 4.74

---

system: Lung (NCI-H23) cancer cells; assay: in vitro cytotoxicity anti tumor activity; type: cell-based; conditions: Homo sapiens, NCI-H23, 1 h; One Hour Pulse Treatment; read-out: IC50
observationType: pIC50
Answers are plain numbers, as −log10 of the molar value.

Which pIC50 is reported for this compound? C[C@H](Cc1ccc(O)c(O)c1)[C@@H](C)Cc1ccc(O)c(O)c1 [Masoprocol] 3.76

// provenance: patent US5541232A
